Tested on: K562 CRISPRi cells
ASSAY_NOTES: Perturb-seq pooled growth measurement (sgRNA counts, growth phenotype γ, relative activity)
Assay type: cell-based, human
CONDITION_INFO: sequencing read counts; 5 days of growth (day seven after transduction)
ASSAY_METRIC: Perturb-seq pooled growth sgRNA counts, d5
Enter the number alone.

SUBSTANCE	EXPERIMENTAL_VALUE
GINS1_−_25388381.23-P1P2_06: sgRNA targeting GINS1, GGACTAGAACGGAAGGAGTG, SEQ ID NO: 95 (listed as DNA, chemistry not fully specified)	1828
HSPE1_+_198365089.23-P1P2_14: sgRNA targeting HSPE1, GGAGACTCGCAGTCCTGCCC, SEQ ID NO: 68 (listed as DNA, chemistry not fully specified)	6501
HSPE1_+_198365089.23-P1P2_02: sgRNA targeting HSPE1, GGAGACTGGCAGTCCGGCCC, SEQ ID NO: 67 (listed as DNA, chemistry not fully specified)	5731
GNB2L1_+_180670873.23-P1P2_00: sgRNA targeting GNB2L1, GTGCAAGGCGGCGGCAGGAG, SEQ ID NO: 55 (listed as DNA, chemistry not fully specified)	2456
CAD_+_27440280.23-P1P2_07: sgRNA targeting CAD, GGCTGGAGCGAAGCCGGGCG, SEQ ID NO: 103 (listed as DNA, chemistry not fully specified)	6008

Would you kindly look at the next entry?
For reference, reported Perturb-seq pooled growth sgRNA counts, d5 for TUBB_+_30688126.23-P1_10: sgRNA targeting TUBB, GCGGCAGGAAGGTTCAGAGA, SEQ ID NO: 109 (listed as DNA, chemistry not fully specified) stands at 9877
